- testSystem: T1, human PDGFRB on SCC VII cells (human, UniProt P09619 33-1106)
- T1 construct: whole, on cells; also called hPDGFRB; SCC-hPDGFRB
- T1 sequence (P09619 33-1106): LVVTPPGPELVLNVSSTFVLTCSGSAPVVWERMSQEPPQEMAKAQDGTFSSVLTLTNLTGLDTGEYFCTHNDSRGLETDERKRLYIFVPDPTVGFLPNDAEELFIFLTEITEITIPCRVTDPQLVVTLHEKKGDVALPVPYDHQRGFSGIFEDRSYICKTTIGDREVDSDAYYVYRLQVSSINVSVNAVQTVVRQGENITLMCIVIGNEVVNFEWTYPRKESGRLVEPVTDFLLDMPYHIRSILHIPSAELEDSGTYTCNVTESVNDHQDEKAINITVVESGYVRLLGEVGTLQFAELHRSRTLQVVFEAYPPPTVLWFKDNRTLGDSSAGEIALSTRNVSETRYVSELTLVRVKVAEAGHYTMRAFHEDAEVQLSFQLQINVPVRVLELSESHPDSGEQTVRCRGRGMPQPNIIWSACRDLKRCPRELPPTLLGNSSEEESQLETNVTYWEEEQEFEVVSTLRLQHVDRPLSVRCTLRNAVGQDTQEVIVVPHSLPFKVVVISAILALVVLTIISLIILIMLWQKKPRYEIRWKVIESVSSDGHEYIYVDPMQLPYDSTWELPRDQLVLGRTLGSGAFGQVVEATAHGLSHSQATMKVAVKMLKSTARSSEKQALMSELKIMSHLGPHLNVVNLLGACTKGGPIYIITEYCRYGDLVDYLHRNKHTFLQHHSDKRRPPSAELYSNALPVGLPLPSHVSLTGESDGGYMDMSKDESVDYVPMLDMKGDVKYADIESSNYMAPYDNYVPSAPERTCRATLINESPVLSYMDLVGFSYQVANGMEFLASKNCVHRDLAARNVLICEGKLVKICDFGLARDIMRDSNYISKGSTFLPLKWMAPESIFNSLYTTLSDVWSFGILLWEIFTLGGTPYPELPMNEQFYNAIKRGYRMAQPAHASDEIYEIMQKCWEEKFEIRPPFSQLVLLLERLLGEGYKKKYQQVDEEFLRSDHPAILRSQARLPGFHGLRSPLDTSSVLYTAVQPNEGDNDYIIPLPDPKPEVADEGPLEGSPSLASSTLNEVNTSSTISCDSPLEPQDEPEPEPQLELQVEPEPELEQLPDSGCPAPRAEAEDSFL
- testProtocol: binding assay on SCC VII cells transfected with human PDGFRB (Example 4)
reportedEndpoint: Kd (nM)
// units = nM; emit number, no label

1. SP12P (VHH, Llama VHH; on phage in the phage ELISA) VHH: EVQLVESGGGLVQAGGSLRLSCVISGRTSPTYPMGWFRQSPGNEREFVASINWSGGWRNYADSVKGRFTISRDDAKNTVYLQMNSLKPEDTAVYYCARGQYSSGTPVYAHEYAYWGQGTQVTVSS :: 0.3
2. SP14P (VHH, Llama VHH; on phage in the phage ELISA) VHH: EVQLVESGGGLVQAGDSLRLSCVVSGLTFSRYGMGWFRQATGKEREFVGGISVGSSGTMYPNSVKGRFTISRDNAKSTVYLQMNSLKPEDTAVYFCAAIDQGSFVQQRDYRYWGQGTQVTVSS :: 0.6
3. SP10P (VHH, Llama VHH; on phage in the phage ELISA) VHH: EVQLVESGGGLVQAGGSLRLSCAASGRTFNGYAMGWFRQAPGKERDFVAAITWSYGYTHYAESVKGRFSISRDSANNMVYLEMNSLKPEDTAVYYCAADPKASRFRTLRRYDYWGQGTQVTVSS :: 0.9
4. SP13P (VHH, Llama VHH; on phage in the phage ELISA) VHH: EVQLVESGGGLVQPGGSLRLSCAASESIFSINYMAWYRQAPGKQRELVAFSIDGSSTNYVDSVRGRFTASRDNAENTLYLQMNSLKPEDTAVYYCYAQGNTWAAGVWGQGTQVTVSS :: 10.4
5. SP01P (VHH, Llama VHH; on phage in the phage ELISA) VHH: EVQLVESGGGLAQAGGSLRLSCVASGNIDSANGMAWYRQAPGKQRELVAHITSGTSYYVASVEGRFTISRANAKDTWYLQMNSLKPEDTGVYYCFPIGLSAHWSQGTQVTVSS :: 7.8
6. SP20P (VHH, Llama VHH; on phage in the phage ELISA) VHH: EVQLVESGGGLVQAGGSLRLSCVISGRTSPTYPMGWFRQSPGNEREFVASINWSGGWRNYADSVKDRFTISRDDAKNTVYLQMNSLKPEDTAVYYCARGQYSSGTPVYAHEYAYWGQGTQVTVSS :: 1
7. SP08P (VHH, Llama VHH; on phage in the phage ELISA) VHH: EVQLVESGGGLVQAGGSLRLSCAASGRTFNGYAMAWFRQAPGKERDFVASITWSYGYTYYADSAQGRFTISRDSAKNTVYLEMNSLKPEDTAVYYCAADPKASRFRILRQYAHWGQGTQVTVSS :: 0.5
8. SP05P (VHH, Llama VHH; on phage in the phage ELISA) VHH: EVQLVESGGGLVQAGGSLRLSCAASGRTSFSGYAMAWFRQAPGKERDFVASITWSYGYTYYTDSAQGRFTISRDSAKNTVYLEMNSLKPEDTAVYYCAADPKASRFRILREYAYWGQGTQVTVSS :: 1.4
9. SP07P (VHH, Llama VHH; on phage in the phage ELISA) VHH: EVQLVESGGGSVQTGGSLRLSCAASGRSFSTYAMAWFRQAPGKEREFVAAINRRATDTVYADSAKGRFIISRDNDKNTVYLQMDSLKTEDTAVYYCAAAKNAYDWRWDRLRDRDYWGQRGQGTQVTVSS :: 62.3

Query: Look at this binder and give its reported Kd. SP02P (VHH, Llama VHH; on phage in the phage ELISA) VHH: EVQLVESGGGLVQAGGSLRLSCAASESISSIEQMGWFRQAPGKQRALVAINTYGGRTVYTNSVEGRFTMSRDSAKNMVYLQMTSLEPEDTAVYYCYAQTTAWRGGVWGQGTQVTVSS
Result: 4.1
